Data provenance: ChEMBL document CHEMBL4346653

Target Entity: Adenosine receptor A2a (Homo sapiens)
Sequence (P29274 whole entry): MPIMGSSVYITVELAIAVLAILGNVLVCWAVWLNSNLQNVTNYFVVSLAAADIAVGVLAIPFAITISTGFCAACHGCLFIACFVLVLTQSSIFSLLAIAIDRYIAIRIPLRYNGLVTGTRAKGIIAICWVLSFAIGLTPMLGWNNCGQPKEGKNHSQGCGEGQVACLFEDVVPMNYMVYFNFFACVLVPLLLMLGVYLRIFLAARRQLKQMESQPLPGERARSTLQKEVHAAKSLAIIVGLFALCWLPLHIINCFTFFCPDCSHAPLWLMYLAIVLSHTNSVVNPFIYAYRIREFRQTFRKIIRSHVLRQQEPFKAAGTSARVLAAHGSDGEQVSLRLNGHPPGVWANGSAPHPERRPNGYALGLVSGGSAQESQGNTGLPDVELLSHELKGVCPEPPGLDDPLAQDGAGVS
Method Summary: Displacement of [3H]MSX-2 from recombinant human A2A adenosine receptor expressed in CHO cell membranes measured after 30 mins in presence of adenosine deaminase by liquid scintillation counting method
pKi: −log10 of the molar value.
Recorded Metric: pKi

- Compound: "CCCn1c(=O)[nH]c2nc(-c3ccc(S(=O)(=O)N4CCN(c5ccccc5F)CC4)cc3)[nH]c2c1=O"
  Target Entity: "Adenosine receptor A2a (Homo sapiens)"
  Recorded Metric: "pKi"
  Bound Sign: "<"
  Result Value: 6.00
- Compound: "CCCn1c(=O)[nH]c2nc(-c3ccc(S(=O)(=O)N4CCN(c5ccc(O)cc5)CC4)cc3)[nH]c2c1=O"
  Target Entity: "Adenosine receptor A2a (Homo sapiens)"
  Recorded Metric: "pKi"
  Bound Sign: "="
  Result Value: 7.01
- Compound: "CCCn1c(=O)[nH]c2nc(-c3ccc(S(=O)(=O)N4CCN(c5cccc(Br)c5)CC4)cc3)[nH]c2c1=O"
  Target Entity: "Adenosine receptor A2a (Homo sapiens)"
  Recorded Metric: "pKi"
  Bound Sign: "<"
  Result Value: 6.00
- Compound: "CCCn1c(=O)[nH]c2nc(-c3ccc(S(=O)(=O)N4CCN(c5cccc(OC)c5)CC4)cc3)[nH]c2c1=O"
  Target Entity: "Adenosine receptor A2a (Homo sapiens)"
  Recorded Metric: "pKi"
  Bound Sign: "="
  Result Value: 6.71
- Compound: "CCCn1c(=O)[nH]c2nc(-c3ccc(S(=O)(=O)N4CCN(C(C)c5ccccc5)CC4)cc3)[nH]c2c1=O (stereo not drawn)"
  Target Entity: "Adenosine receptor A2a (Homo sapiens)"
  Recorded Metric: "pKi"
  Bound Sign: "≤"
  Result Value: 6.00
- Compound: "CCCn1c(=O)[nH]c2nc(-c3ccc(S(=O)(=O)N4CCN(c5ccc(C)cc5)CC4)cc3)[nH]c2c1=O"
  Target Entity: "Adenosine receptor A2a (Homo sapiens)"
  Recorded Metric: "pKi"
  Bound Sign: "<"
  Result Value: 6.00
- Compound: "CCCn1c(=O)[nH]c2nc(-c3ccc(S(=O)(=O)N(C)C)cc3)[nH]c2c1=O"
  Target Entity: "Adenosine receptor A2a (Homo sapiens)"
  Recorded Metric: "pKi"
  Bound Sign: "="
  Result Value: 7.28
- Compound: "CCCn1c(=O)[nH]c2nc(-c3ccc(S(=O)(=O)N4CCN(Cc5cccc(C)c5)CC4)cc3)[nH]c2c1=O"
  Target Entity: "Adenosine receptor A2a (Homo sapiens)"
  Recorded Metric: "pKi"
  Bound Sign: "="
  Result Value: 6.72
- Compound: "CCCn1c(=O)[nH]c2nc(-c3ccc(S(=O)(=O)N4CCN(Cc5ccc(OCCO)cc5)CC4)cc3)[nH]c2c1=O"
  Target Entity: "Adenosine receptor A2a (Homo sapiens)"
  Recorded Metric: "pKi"
  Bound Sign: "="
  Result Value: 6.62
- Compound: "CCCn1c(=O)[nH]c2nc(-c3ccc(S(=O)(=O)N4CCN(c5ccccc5Cl)CC4)cc3)[nH]c2c1=O"
  Target Entity: "Adenosine receptor A2a (Homo sapiens)"
  Recorded Metric: "pKi"
  Bound Sign: "="
  Result Value: 6.69
- Compound: "CCCn1c(=O)[nH]c2nc(-c3ccc(S(=O)(=O)N4CCN(c5ccc(Cl)cc5F)CC4)cc3)[nH]c2c1=O"
  Target Entity: "Adenosine receptor A2a (Homo sapiens)"
  Recorded Metric: "pKi"
  Bound Sign: "<"
  Result Value: 6.00
- Compound: "CCCn1c(=O)[nH]c2nc(-c3ccc(S(=O)(=O)N4CCN(Cc5cccc(Br)c5)CC4)cc3)[nH]c2c1=O"
  Target Entity: "Adenosine receptor A2a (Homo sapiens)"
  Recorded Metric: "pKi"
  Bound Sign: "="
  Result Value: 7.03
- Compound: "CCCn1c(=O)[nH]c2nc(-c3ccc(S(=O)(=O)N4CCN(c5ccc(OC)c(Cl)c5)CC4)cc3)[nH]c2c1=O"
  Target Entity: "Adenosine receptor A2a (Homo sapiens)"
  Recorded Metric: "pKi"
  Bound Sign: "<"
  Result Value: 6.00
- Compound: "CCCn1c(=O)[nH]c2nc(-c3ccc(S(=O)(=O)N4CCN(c5ccccc5)C(C)C4)cc3)[nH]c2c1=O (stereo not drawn)"
  Target Entity: "Adenosine receptor A2a (Homo sapiens)"
  Recorded Metric: "pKi"
  Bound Sign: "="
  Result Value: 6.53
- Compound: "CCCn1c(=O)[nH]c2nc(-c3ccc(S(=O)(=O)N4CCN(c5ccc(F)cc5)CC4)cc3)[nH]c2c1=O"
  Target Entity: "Adenosine receptor A2a (Homo sapiens)"
  Recorded Metric: "pKi"
  Bound Sign: "="
  Result Value: 6.97
- Compound: "CCCn1c(=O)[nH]c2nc(-c3ccc(S(=O)(=O)N4CCN(c5ccccc5Br)CC4)cc3)[nH]c2c1=O"
  Target Entity: "Adenosine receptor A2a (Homo sapiens)"
  Recorded Metric: "pKi"
  Bound Sign: "="
  Result Value: 7.05
- Compound: "CCCn1c(=O)[nH]c2nc(-c3ccc(S(=O)(=O)N4CCN(c5ccc(OCCO)cc5)CC4)cc3)[nH]c2c1=O"
  Target Entity: "Adenosine receptor A2a (Homo sapiens)"
  Recorded Metric: "pKi"
  Bound Sign: "="
  Result Value: 6.77
- Compound: "CCCn1c(=O)[nH]c2nc(-c3ccc(S(=O)(=O)N4CCN(c5ccc(OC)c(F)c5)CC4)cc3)[nH]c2c1=O"
  Target Entity: "Adenosine receptor A2a (Homo sapiens)"
  Recorded Metric: "pKi"
  Bound Sign: "<"
  Result Value: 6.00
